Values compiled from patent US9650395B2.

Listed below: MIC values for each entry.
# Tested on: super sensitive Gram-negative Escherichia coli (E. coli) BAS849
# RUN_DESCRIPTION: Antibacterial activity, microbroth dilution MIC, E. coli BAS849
# Type: cell-based
# CONDITION_NOTES: Escherichia coli; E. coli BAS849, microbroth dilution; read-out: MIC, BAS849
Structures can show the parent of a compound that is named as a salt.
ASSAY_ENDPOINT: MIC

- MOLECULE: "CCc1c(-c2ccc(N(C)C)cc2F)[nH]c(=O)c(C(=O)O)c1O"
  ASSAY_TARGET: "super sensitive Gram-negative Escherichia coli (E. coli) BAS849"
  ASSAY_ENDPOINT: "MIC"
  REPORTED_MEASUREMENT: "< 1 µg/mL"
- MOLECULE: "CCc1cc(C(=O)O)c(=O)[nH]c1-c1ccc(N(C)C)c(OC)c1"
  ASSAY_TARGET: "super sensitive Gram-negative Escherichia coli (E. coli) BAS849"
  ASSAY_ENDPOINT: "MIC"
  REPORTED_MEASUREMENT: "3.5 to 12.5 µg/mL"
- MOLECULE: "CCc1cc(C(=O)O)c(=O)[nH]c1-c1ccc(N2CCCC2)c(C)c1"
  ASSAY_TARGET: "super sensitive Gram-negative Escherichia coli (E. coli) BAS849"
  ASSAY_ENDPOINT: "MIC"
  REPORTED_MEASUREMENT: "< 1 µg/mL"
- MOLECULE: "CCNc1ccc(-c2[nH]c(=O)c(C(=O)O)c(O)c2CC)cc1"
  ASSAY_TARGET: "super sensitive Gram-negative Escherichia coli (E. coli) BAS849"
  ASSAY_ENDPOINT: "MIC"
  REPORTED_MEASUREMENT: "< 1 µg/mL"
- MOLECULE: "CCc1cc(C(=O)O)c(=O)[nH]c1-c1ccc(N2CCC(O)(CC)C2)cc1 (centres unmarked)"
  ASSAY_TARGET: "super sensitive Gram-negative Escherichia coli (E. coli) BAS849"
  ASSAY_ENDPOINT: "MIC"
  REPORTED_MEASUREMENT: "< 1 µg/mL"
- MOLECULE: "CCc1c(-c2ccc(OC)cc2)[nH]c(=O)c(C(=O)O)c1O"
  ASSAY_TARGET: "super sensitive Gram-negative Escherichia coli (E. coli) BAS849"
  ASSAY_ENDPOINT: "MIC"
  REPORTED_MEASUREMENT: "< 1 µg/mL"
- MOLECULE: "Cc1c(-c2ccc(N3C[C@@H]4[C@@H](N)[C@@H]4C3)cn2)[nH]c(=O)c(C(=O)O)c1O"
  ASSAY_TARGET: "super sensitive Gram-negative Escherichia coli (E. coli) BAS849"
  ASSAY_ENDPOINT: "MIC"
  REPORTED_MEASUREMENT: "3.5 to 12.5 µg/mL"
- MOLECULE: "CCc1cc(C(=O)O)c(=O)[nH]c1-c1ccc(N2CCC(OCc3ccccc3)C2)cc1 (centres unmarked)"
  ASSAY_TARGET: "super sensitive Gram-negative Escherichia coli (E. coli) BAS849"
  ASSAY_ENDPOINT: "MIC"
  REPORTED_MEASUREMENT: "< 1 µg/mL"
- MOLECULE: "CCc1c(-c2ccc(N3CCC(CNC)C3)cc2)[nH]c(=O)c(C(=O)O)c1O.Cl (centres unmarked)"
  ASSAY_TARGET: "super sensitive Gram-negative Escherichia coli (E. coli) BAS849"
  ASSAY_ENDPOINT: "MIC"
  REPORTED_MEASUREMENT: "< 1 µg/mL"
- MOLECULE: "CCc1cc(C(=O)O)c(=O)[nH]c1-c1ccc(N2CCC(CNCc3ccccc3)C2)cc1.Cl (centres unmarked)"
  ASSAY_TARGET: "super sensitive Gram-negative Escherichia coli (E. coli) BAS849"
  ASSAY_ENDPOINT: "MIC"
  REPORTED_MEASUREMENT: "< 1 µg/mL"
- MOLECULE: "CCc1cc(C(=O)O)c(=O)[nH]c1-c1ccc(N2CCN(C(=O)OC(C)(C)C)CC2)cc1"
  ASSAY_TARGET: "super sensitive Gram-negative Escherichia coli (E. coli) BAS849"
  ASSAY_ENDPOINT: "MIC"
  REPORTED_MEASUREMENT: "1 to 3.5 µg/mL"
- MOLECULE: "CCc1cc(C(=O)O)c(=O)[nH]c1-c1ccc(N2C[C@H]3CC[C@@H](N(C)Cc4ccccc4)[C@H]3C2)cc1.Cl"
  ASSAY_TARGET: "super sensitive Gram-negative Escherichia coli (E. coli) BAS849"
  ASSAY_ENDPOINT: "MIC"
  REPORTED_MEASUREMENT: "< 1 µg/mL"
- MOLECULE: "CCc1c(-c2ccc(N3CC[C@@H](F)C3)cc2F)[nH]c(=O)c(C(=O)O)c1O"
  ASSAY_TARGET: "super sensitive Gram-negative Escherichia coli (E. coli) BAS849"
  ASSAY_ENDPOINT: "MIC"
  REPORTED_MEASUREMENT: "< 1 µg/mL"
- MOLECULE: "CCc1cc(C(=O)O)c(=O)[nH]c1-c1ccc(N2C[C@H]3CN(C)C[C@H]3C2)cc1.Cl"
  ASSAY_TARGET: "super sensitive Gram-negative Escherichia coli (E. coli) BAS849"
  ASSAY_ENDPOINT: "MIC"
  REPORTED_MEASUREMENT: "1 to 3.5 µg/mL"
- MOLECULE: "CCc1c(-c2ccc(N3C[C@@H]4[C@H](C3)[C@H]4N(C)C)cc2)[nH]c(=O)c(C(=O)O)c1O [Cpd 271, hydrochloride]"
  ASSAY_TARGET: "super sensitive Gram-negative Escherichia coli (E. coli) BAS849"
  ASSAY_ENDPOINT: "MIC"
  REPORTED_MEASUREMENT: "< 1 µg/mL"
- MOLECULE: "CCc1cc(C(=O)O)c(=O)[nH]c1-c1ccc(N2CCC(OC)CC2)cc1"
  ASSAY_TARGET: "super sensitive Gram-negative Escherichia coli (E. coli) BAS849"
  ASSAY_ENDPOINT: "MIC"
  REPORTED_MEASUREMENT: "< 1 µg/mL"
- MOLECULE: "CC(C)c1cc(C(=O)O)c(=O)[nH]c1-c1ccc(N(C)CCN(C)C)cc1"
  ASSAY_TARGET: "super sensitive Gram-negative Escherichia coli (E. coli) BAS849"
  ASSAY_ENDPOINT: "MIC"
  REPORTED_MEASUREMENT: "1 to 3.5 µg/mL"
